Parameter: pIC50. Scope: all listed entries.
# MEASUREMENT TARGET: UniProt:P53779
# Sequence (P53779 whole entry): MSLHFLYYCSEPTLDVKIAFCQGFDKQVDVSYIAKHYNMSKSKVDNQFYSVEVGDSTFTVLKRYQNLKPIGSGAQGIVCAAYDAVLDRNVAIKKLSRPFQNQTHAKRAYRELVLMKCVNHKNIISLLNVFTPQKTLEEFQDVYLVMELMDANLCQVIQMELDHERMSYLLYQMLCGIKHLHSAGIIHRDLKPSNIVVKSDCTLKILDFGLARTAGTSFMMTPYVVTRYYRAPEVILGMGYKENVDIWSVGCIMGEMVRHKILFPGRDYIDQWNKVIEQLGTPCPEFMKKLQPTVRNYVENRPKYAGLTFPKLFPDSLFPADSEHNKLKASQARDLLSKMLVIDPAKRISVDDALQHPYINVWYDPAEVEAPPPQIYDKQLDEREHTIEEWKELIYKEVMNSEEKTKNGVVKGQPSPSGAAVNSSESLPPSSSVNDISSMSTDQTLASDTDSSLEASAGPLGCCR
pIC50: −log10 of the molar value.

Check out these entries, answers already filled in.
INSERT INTO results (compound, measurement_target, test_value) VALUES
  ('COc1cccc(C(=O)NCc2ccc(S(=O)(=O)N3CCC(NCCCN4CCOCC4)C3)s2)c1 (stereo not drawn) [Example 176]', 'UniProt:P53779', '> 6.22'),
  ('COc1cccc(C(=O)NCc2ccc(S(=O)(=O)N3CCC(NCc4ccc(C(F)(F)F)cc4)CC3)s2)c1 [Example 1]', 'UniProt:P53779', '> 6.22');

Continue with the next compound.
State pIC50 (UniProt:P53779) of COc1cccc(C(=O)NCc2ccc(S(=O)(=O)N3CCCC(NCCC4CCCCC4)CC3)s2)c1 (stereo not drawn) [Example 132] . > 6.22
